- Test system: rat hepatic stellate cells (rHSC)
- Protocol Text: Collagen production by immortalized rat hepatic stellate cells (14C-proline pulse, phosphorimager)
- Type: cell-based
- Conditions: cultured rat stellate cell line, dose-dependent; read-out: EC50 for promotion of collagen synthesis and release
pEC50: −log10 of the molar value.
Endpoint: pEC50

pEC50 for CCNC(=O)[C@H]1O[C@@H](n2cnc3c(N)nc(NCCc4ccc(CCC(=O)O)cc4)nc32)[C@H](O)[C@@H]1O [CGS-21680] is ~6.52

All figures here come from patent US6555545B2.
